Entry source: the supplement of paper PMC10567573

Exercise: for every item that follows, state its recorded protein stability index.
B1: C20orf112 (parent)
chain: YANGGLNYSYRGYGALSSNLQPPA

variants of: B1; assay: protein stability index of a GFP-peptide fusion (GPS, HEK-293T) (PSI 1-6); higher = more stable; settings: c terminus: a fixed tail appended;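 also: lentivirally expressed fusions sorted by FACS into six bins by GFP to DsRed ratio, PSI derived from sequencing read proportions per bin multiplied by bin number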
Form rule: numeric answer, no unit written next to it.

[Q] Give the measured protein stability index of "P23E" .
[A] 2.05

[Q] Give the measured protein stability index of "L20M" .
[A] 1.52

[Q] Give the measured protein stability index of "Q21L" .
[A] 1.99

[Q] Give the measured protein stability index of "N3T" .
[A] 1.65

[Q] Give the measured protein stability index of "Y8E" .
[A] 2.13

[Q] Give the measured protein stability index of "N3M" .
[A] 1.5

[Q] Give the measured protein stability index of "N19E" .
[A] 1.11

[Q] Give the measured protein stability index of "R11Y" .
[A] 2.21

[Q] Give the measured protein stability index of "S17I" .
[A] 3.55

[Q] Give the measured protein stability index of "G4P" .
[A] 2.18

[Q] Give the measured protein stability index of "A24Q" .
[A] 2.27

[Q] Give the measured protein stability index of "Y13R" .
[A] 1.42

[Q] Give the measured protein stability index of "L6G" .
[A] 1.73
